The entries below come with measured pIC50 values attached.
biological target: immunoproteasome LMP7/B5i subunit (Homo sapiens, UniProt P20618+P28062); experiment: Caliper-based proteasome enzymatic activity assay, LMP7; conditions: human recombinant immunoproteasome 0.3 nM, FAM-peptide substrate 1 μM, 3 h at rt
pIC50: −log10 of the molar value.

| Molecule | Assayed Target | pIC50 |
| --- | --- | --- |
| CN(CC(F)F)C(C)(C)C=C(C#N)C(=O)N1CCCC[C@@H]1COC(=O)N[C@@H](Cc1ccccc1)B(O)O [Example 80] | immunoproteasome LMP7/B5i subunit (Homo sapiens, UniProt P20618+P28062) | 8.70 |
| CC(C)(C=C(C#N)C(=O)N1CCC[C@@H]1COC(=O)N[C@@H](Cc1coc2ccccc12)B(O)O)N1CCN(C2COC2)CC1 [Example 44] | immunoproteasome LMP7/B5i subunit (Homo sapiens, UniProt P20618+P28062) | 8.64 |
| COc1ccc(C[C@H](NC(=O)OC[C@H]2CCCCN2C(=O)C(C#N)=CC(C)(C)N2CCC(F)(F)C2)B(O)O)cc1 [Example 78] | immunoproteasome LMP7/B5i subunit (Homo sapiens, UniProt P20618+P28062) | 8.32 |
| C=CC(=O)N1C[C@@H]2C[C@@H]2[C@@H]1COC(=O)N[C@@H](Cc1ccc(F)cc1)B(O)O [Example 109] | immunoproteasome LMP7/B5i subunit (Homo sapiens, UniProt P20618+P28062) | 8.19 |
| CC(C)(C=C(C#N)C(=O)N1CCCC[C@]1(C)COC(=O)N[C@@H](Cc1ccccc1)B(O)O)N1CCC(F)(F)C1 [Example 129] | immunoproteasome LMP7/B5i subunit (Homo sapiens, UniProt P20618+P28062) | 8.70 |
| C=CC(=O)N1CCCC[C@H]1COC(=O)N[C@@H](Cc1ccccc1)B(O)O [Example 11] | immunoproteasome LMP7/B5i subunit (Homo sapiens, UniProt P20618+P28062) | 6.02 |
| CC(C)(C)/C=C(\C#N)C(=O)N1CCNC[C@@H]1COC(=O)N[C@@H](Cc1ccccc1)B(O)O [Example 128] | immunoproteasome LMP7/B5i subunit (Homo sapiens, UniProt P20618+P28062) | 8.64 |
